The reported numbers originate from the supplement of paper PMC9112550.

# Tested on: Escherichia coli TOP10
# assay-remarks: shrunken log2 fold change of peptide-encoding DNA abundance (4.5 h post-induction vs induction); higher = less antimicrobial activity (less host growth inhibition)
# measurement-conditions: time post-induction: 4.5 h; library: site-saturation at positions 5, 18, 19, 20
Labels assigned by shrunken log2 fold change range: lower level = under -0.3, middle level = from -0.3 up to -0.1, upper level = -0.1 and over

RRIRFRPPRLPRPRPRPWCFPRP ... middle level
RRIRIRPPRLPRPRPRPVMFPRP ... middle level

Looking at RRIRERPPRLPRPRPRPKDHPRP , which class would you pick?
lower level

# bin label for RRIRCRPPRLPRPRPRPWRIPRP
lower level

Lab note: which band did RRIRWRPPRLPRPRPRPYEQPRP land in?
lower level

Band assignment needed for RRIRVRPPRLPRPRPRPCTPPRP please.
middle level

Textbook exercise: identify the category of the sequence given here, RRIRRRPPRLPRPRPRPEAEPRP , according to its measured value.
upper level

Looking at RRIRPRPPRLPRPRPRPMSMPRP , which class would you pick?
middle level

Determine which band this sequence sits in: RRIRARPPRLPRPRPRPHQGPRP
upper level

###

# System: Escherichia coli TOP10
# assay-remarks: shrunken log2 fold change of peptide-encoding DNA abundance (4.5 h post-induction vs induction); higher = less antimicrobial activity (less host growth inhibition)
# measurement-conditions: time post-induction: 4.5 h; library: site-saturation at positions 5, 18, 19, 20
Response field class: enum, chosen by comparing shrunken log2 fold change against lo = under -0.02, mid = from -0.02 up to 0.1, hi = 0.1 and over

Answered examples (3):
RRIRERPPRLPRPRPRPDKVPRP ... lo
RRIRSRPPRLPRPRPRPEVYPRP ... hi
RRIRMRPPRLPRPRPRPMHSPRP ... hi

Into which bin does this sequence go? RRIRQRPPRLPRPRPRPTEIPRP
lo

Any idea which band RRIRMRPPRLPRPRPRPVGPPRP is in?
hi

Please report the category associated with RRIRNRPPRLPRPRPRPPSDPRP , nothing else.
lo

Field: class (shrunken log2 fold change) — entry: RRIRKRPPRLPRPRPRPACEPRP
hi

Which class does RRIRRRPPRLPRPRPRPSFWPRP fall in?
hi

Which category does the recorded shrunken log2 fold change put RRIRERPPRLPRPRPRPFLKPRP in?
lo

Which shrunken log2 fold change band matches RRIRGRPPRLPRPRPRPNMAPRP ?
hi

Into which bin does this sequence go? RRIRLRPPRLPRPRPRPWFDPRP
lo

Exercise: read the entry RRIRIRPPRLPRPRPRPQWQPRP and state which class it falls under.
lo

Exam item: assign RRIRMRPPRLPRPRPRPNMYPRP to the correct category.
mid

Into which category would you place RRIRERPPRLPRPRPRPRVIPRP ?
mid

###

# Test system: Escherichia coli TOP10;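 also: peptides expressed intracellularly from a pBAD plasmid library in pooled LB shake-flask culture, induced with 0.3% L-arabinose, DNA abundance read by NGS, three biological replicates, DESeq2 with apeglm shrinkage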
# assay-remarks: shrunken log2 fold change of peptide-encoding DNA abundance (4.5 h post-induction vs induction); higher = less antimicrobial activity (less host growth inhibition)
# measurement-conditions: time post-induction: 4.5 h; library: site-saturation at positions 5, 18, 19, 20
Category | rule: reported shrunken log2 fold change within range, see bottom end (below -0.003), midrange (-0.003 to below 0.4), top end (0.4 or more)

RRIRGRPPRLPRPRPRPVECPRP ... midrange
RRIRWRPPRLPRPRPRPLWAPRP ... top end
RRIRYRPPRLPRPRPRPDIYPRP ... midrange
RRIRYRPPRLPRPRPRPHRNPRP ... bottom end
RRIRARPPRLPRPRPRPRQLPRP ... top end

# bin lookup: classify RRIRSRPPRLPRPRPRPWNGPRP by its shrunken log2 fold change
bottom end

Hi there! Could you help me figure out the category for RRIRRRPPRLPRPRPRPRSMPRP please?
top end
